Hello, the source for this data is the NIST ThermoML archive (doi:10.1021/je100095p), in case you need it.

- CONDITION_SUMMARY: 298.15 K; 101.33 kPa; Liquid; Vibrating tube method
Recorded mass density values for a group of compounds are listed next.
MEASURED_ENDPOINT: mass density (kg/m3)

>>> measured_number("CCCCCO")
810.88
>>> measured_number("CO")
786.5
>>> measured_number("CCO")
785.15
>>> measured_number("CCCO")
799.51
>>> measured_number("CCCCCCO")
815.2
>>> measured_number("CCCCO")
805.75
>>> measured_number("OCc1ccccc1")
1041.99

* * *

- EXPERIMENTAL_DETAILS: refractive index (Na D-line) (dimensionless)
- CONDITION_SUMMARY: 298.15 K; 101.33 kPa; Liquid; Standard Abbe refractometry
MEASURED_ENDPOINT: refractive index

>>> measured_number("CO [methanol]")
1.3266
>>> measured_number("CCO [ethanol]")
1.3595
>>> measured_number("CCCCO [butan-1-ol]")
1.3974
>>> measured_number("CCCO [propan-1-ol]")
1.3833
>>> measured_number("CCCCCO [pentan-1-ol]")
1.4088
>>> measured_number("CCCCCCO [hexan-1-ol]")
1.4165
>>> measured_number("OCc1ccccc1 [benzenemethanol]")
1.5381
